assay: Apparent permeability across apical to basolateral in human Caco2 cells by LC-MS/MS analysis; type: ADME, cell-based; settings: Caco-2, read-out: permeability
READOUT TYPE: Papp A→B
Quick note: number first, unit second.

Input line: Give the reported Papp A→B for this molecule. CCN(C(=O)c1cc(C(C)C)c(O)cc1O)c1cccnc1
Output line: 319 nm/s

---

assay: Metabolic stability in Sprague-Dawley rat hepatocytes assessed as Intrinsic clearance by LC-MS/MS analysis; type: ADME, cell-based, Hepatocyte
READOUT TYPE: CLint (mL/min/kg)
Your answer should be a plain number; it is taken to be in mL/min/kg.

Input line: Give the reported CLint for this compound. CCN(C(=O)c1cc(C(C)C)c(O)cc1O)c1cccnc1
Output line: 751

---

experiment: Metabolic stability in Sprague-Dawley rat hepatocytes assessed as half life by LC-MS/MS analysis; format: ADME, cell-based, Hepatocyte
READOUT TYPE: half-life (min)
Your answer should be a plain number; it is taken to be in min.

Input line: Give the reported half-life for this compound. CCN(C(=O)c1cc(C(C)C)c(O)cc1O)c1cccnc1
Output line: 11.2

---

assay: Cmax in Sprague-Dawley rat at 20 mg/kg, po measured after 1 hrs by LC-MS/MS analysis; format: ADME, organism-based; design: route oral, dose 20 mg/kg, time 1 hrs; settings: in vivo
READOUT TYPE: Cmax (µg/mL)
Your answer should be a plain number; it is taken to be in µg/mL.

Input line: Give the reported Cmax for this compound. CCN(C(=O)c1cc(C(C)C)c(O)cc1O)c1cccnc1
Output line: 0.0405

---

assay: Metabolic stability in CD1 mouse hepatocytes assessed as Intrinsic clearance by LC-MS/MS analysis; format: ADME, cell-based, Hepatocyte
READOUT TYPE: CLint (L/h/kg)
Your answer should be a plain number; it is taken to be in L/h/kg.

Input line: Give the reported CLint for this molecule. CCN(C(=O)c1cc(C(C)C)c(O)cc1O)c1cccnc1
Output line: 185

---

experiment: Cmax in Sprague-Dawley rat at 2 mg/kg, iv measured after 1 hrs by LC-MS/MS analysis; format: ADME, organism-based; set-up: route intravenous, time 1 hrs, dose 2 mg/kg; details: in vivo
READOUT TYPE: Cmax (ng/mL)
Your answer should be a plain number; it is taken to be in ng/mL.

Input line: Give the reported Cmax for this molecule. CCN(C(=O)c1cc(C(C)C)c(O)cc1O)c1cccnc1
Output line: 1580

---

target: Cytochrome P450 2C19 (Homo sapiens)
Sequence (P33261 whole entry): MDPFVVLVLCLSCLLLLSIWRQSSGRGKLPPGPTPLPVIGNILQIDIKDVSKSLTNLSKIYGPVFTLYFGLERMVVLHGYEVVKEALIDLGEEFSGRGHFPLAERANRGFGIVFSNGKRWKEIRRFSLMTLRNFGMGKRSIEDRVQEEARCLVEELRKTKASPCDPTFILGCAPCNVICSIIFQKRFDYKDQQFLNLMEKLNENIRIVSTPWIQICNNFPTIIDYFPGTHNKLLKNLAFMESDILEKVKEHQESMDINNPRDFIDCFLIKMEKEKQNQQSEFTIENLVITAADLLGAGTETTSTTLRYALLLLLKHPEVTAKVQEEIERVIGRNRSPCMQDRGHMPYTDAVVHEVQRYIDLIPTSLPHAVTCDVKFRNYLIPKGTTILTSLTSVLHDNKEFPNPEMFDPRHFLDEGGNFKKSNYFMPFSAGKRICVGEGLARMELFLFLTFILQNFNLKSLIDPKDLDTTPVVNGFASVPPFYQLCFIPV
READOUT TYPE: IC50 (µM)
Your answer should be a plain number; it is taken to be in µM.

Input line: Answer with IC50 of CCN(C(=O)c1cc(C(C)C)c(O)cc1O)c1cccnc1 measured for Cytochrome P450 2C19 (Homo sapiens).
Output line: 7.8

---

target: CYP1A2 (Homo sapiens, UniProt P05177); assay: Inhibition of CYP1A2 in human liver microsomes using phenacetin as substrate at 50 uM by LC-MS/MS analysis; assay type: ADME; conditions: probe phenacetin
Sequence (P05177 whole entry): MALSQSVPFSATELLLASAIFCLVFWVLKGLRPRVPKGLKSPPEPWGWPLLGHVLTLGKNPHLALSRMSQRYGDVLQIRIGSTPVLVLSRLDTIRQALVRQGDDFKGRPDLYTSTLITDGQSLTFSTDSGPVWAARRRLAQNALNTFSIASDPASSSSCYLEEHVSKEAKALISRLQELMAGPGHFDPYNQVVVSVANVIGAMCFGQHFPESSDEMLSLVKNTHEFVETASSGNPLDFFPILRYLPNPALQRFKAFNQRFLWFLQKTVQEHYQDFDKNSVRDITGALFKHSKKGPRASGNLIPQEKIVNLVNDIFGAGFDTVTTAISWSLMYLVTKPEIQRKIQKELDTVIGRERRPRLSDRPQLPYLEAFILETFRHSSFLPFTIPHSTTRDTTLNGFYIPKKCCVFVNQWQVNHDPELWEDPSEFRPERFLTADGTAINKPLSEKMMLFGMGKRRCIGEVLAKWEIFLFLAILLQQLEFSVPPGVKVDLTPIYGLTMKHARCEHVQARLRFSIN
READOUT TYPE: inhibition at 50 µM (%)
Your answer should be a plain number; it is taken to be in %.

Input line: Give the reported inhibition at 50 µM for this molecule. CCN(C(=O)c1cc(C(C)C)c(O)cc1O)c1cccnc1
Output line: 50.6

---

assay: Half life in Sprague-Dawley rat at 2 mg/kg, iv measured after 1 hrs by LC-MS/MS analysis; assay type: ADME, organism-based; conditions: in vivo
READOUT TYPE: half-life (h)
Your answer should be a plain number; it is taken to be in h.

Input line: Give the reported half-life for this molecule. CCN(C(=O)c1cc(C(C)C)c(O)cc1O)c1cccnc1
Output line: 2.9

---

assay: AUC (0 to t) in Sprague-Dawley rat at 2 mg/kg, iv measured after 1 hrs by LC-MS/MS analysis; format: ADME, organism-based; parameters: route intravenous, time 1 hrs, dose 2 mg/kg; settings: in vivo
READOUT TYPE: AUCt
Quick note: number first, unit second.

Input line: Give the reported AUCt for this compound. CCN(C(=O)c1cc(C(C)C)c(O)cc1O)c1cccnc1
Output line: 487 ng·h/mL

---

test system: 661W; experiment: Cytotoxicity against mouse 661W cells by MTT based vision related toxicity assay; assay type: cell-based
READOUT TYPE: Activity

>>> print(df.to_string())
                    structure_smiles_string  data_value
0  CC(C)c1cc(-c2n[nH]c(=O)n2-c2ccc3c(ccn3C)c2)c(O)cc1O     > 10 µM

Input line: Answer with Activity of COC1=C2C[C@@H](C)C[C@H](OC)[C@H](O)[C@@H](C)/C=C(\C)[C@H](OC(N)=O)[C@@H](OC)/C=C\C=C(/C)C(=O)NC(=CC1=O)C2=O measured for 661W.
Output line: 1.65 µM

Input line: Answer with Activity of COc1c(C)cnc(Cn2cnc3c(Cl)nc(N)nc32)c1C measured for 661W.
Output line: > 10 µM

Input line: Answer with Activity of CCN(C(=O)c1cc(C(C)C)c(O)cc1O)c1cccnc1 measured for 661W.
Output line: > 10 µM

Input line: Answer with Activity of CCNC(=O)c1noc(-c2cc(C(C)C)c(O)cc2O)c1-c1ccc(CN2CCOCC2)cc1 measured for 661W.
Output line: 0.04 µM

Input line: Answer with Activity of C=CCNC1=C2C[C@@H](C)C[C@H](OC)[C@H](O)[C@@H](C)/C=C(\C)[C@H](OC(N)=O)[C@@H](OC)/C=C\C=C(/C)C(=O)NC(=CC1=O)C2=O measured for 661W.
Output line: > 10 µM

---

biological target: Cytochrome P450 2C9 (Homo sapiens)
Sequence (P11712 whole entry): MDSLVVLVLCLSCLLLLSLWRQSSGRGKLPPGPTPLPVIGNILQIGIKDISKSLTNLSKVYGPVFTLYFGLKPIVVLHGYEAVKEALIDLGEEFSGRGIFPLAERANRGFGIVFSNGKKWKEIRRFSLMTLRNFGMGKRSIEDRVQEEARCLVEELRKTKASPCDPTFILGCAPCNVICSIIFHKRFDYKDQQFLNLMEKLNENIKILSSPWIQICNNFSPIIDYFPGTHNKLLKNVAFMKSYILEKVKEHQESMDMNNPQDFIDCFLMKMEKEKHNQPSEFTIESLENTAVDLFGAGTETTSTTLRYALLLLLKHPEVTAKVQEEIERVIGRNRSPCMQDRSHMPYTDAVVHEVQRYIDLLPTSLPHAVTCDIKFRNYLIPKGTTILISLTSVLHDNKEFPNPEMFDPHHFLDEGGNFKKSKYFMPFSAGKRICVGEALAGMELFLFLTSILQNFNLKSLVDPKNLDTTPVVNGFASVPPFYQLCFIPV
READOUT TYPE: IC50

Input line: Give the reported IC50 for this compound. CCN(C(=O)c1cc(C(C)C)c(O)cc1O)c1cccnc1
Output line: 15 µM

---

test: AUC (0 to infinity) in Sprague-Dawley rat at 2 mg/kg, iv measured after 1 hrs by LC-MS/MS analysis; type: ADME, organism-based; design: route intravenous, dose 2 mg/kg, time 1 hrs; settings: in vivo
READOUT TYPE: AUC
Quick note: number first, unit second.

Input line: Give the reported AUC for this compound. CCN(C(=O)c1cc(C(C)C)c(O)cc1O)c1cccnc1
Output line: 456 ng·h/mL

---

Target protein (sequence): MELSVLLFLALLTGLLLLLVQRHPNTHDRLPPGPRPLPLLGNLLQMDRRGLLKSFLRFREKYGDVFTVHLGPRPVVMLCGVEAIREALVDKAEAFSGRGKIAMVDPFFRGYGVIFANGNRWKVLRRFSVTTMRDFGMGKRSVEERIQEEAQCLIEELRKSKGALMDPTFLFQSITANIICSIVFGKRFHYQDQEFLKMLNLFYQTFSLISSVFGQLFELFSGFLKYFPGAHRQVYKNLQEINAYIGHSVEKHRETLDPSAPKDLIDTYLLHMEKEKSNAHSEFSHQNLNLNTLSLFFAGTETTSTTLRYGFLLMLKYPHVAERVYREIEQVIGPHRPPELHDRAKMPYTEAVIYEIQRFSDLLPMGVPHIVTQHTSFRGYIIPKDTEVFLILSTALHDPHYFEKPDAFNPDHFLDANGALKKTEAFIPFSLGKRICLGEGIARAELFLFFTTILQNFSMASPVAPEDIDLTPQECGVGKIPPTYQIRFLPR
READOUT TYPE: IC50 (µM)
Your answer should be a plain number; it is taken to be in µM.

Input line: Give the reported IC50 for this compound. CCN(C(=O)c1cc(C(C)C)c(O)cc1O)c1cccnc1
Output line: 37.2

---

assay: Hepatic clearance in CD1 mouse by LC-MS/MS analysis; type: ADME, tissue-based, Hepatocyte; conditions: hepatocytes
READOUT TYPE: CLhep predicted (mL/min/kg)
Your answer should be a plain number; it is taken to be in mL/min/kg.

Input line: Give the reported CLhep predicted for this compound. CCN(C(=O)c1cc(C(C)C)c(O)cc1O)c1cccnc1
Output line: 87.5

---

assay: Metabolic stability in Beagle dog hepatocytes assessed as Intrinsic clearance by LC-MS/MS analysis; assay type: ADME, cell-based, Canis lupus familiaris, Hepatocyte
READOUT TYPE: CLint (mL/min/kg)
Your answer should be a plain number; it is taken to be in mL/min/kg.

Input line: Give the reported CLint for this compound. CCN(C(=O)c1cc(C(C)C)c(O)cc1O)c1cccnc1
Output line: 119

---

assay: in vitro; settings: human, HUVEC cells versus A549 cells
Description: Therapeutic index, ratio of IC50 for HUVEC cells to IC50 for human A549 cells
READOUT TYPE: selectivity ratio
Give the value as a plain number.

In [3]: df
Out[3]:
                    structure_smiles_string  data_value
0  CC(C)c1cc(C(=O)N(C)c2ccc3[nH]ccc3c2)c(O)cc1O         3.4
1  CC(C)c1cc(C(=O)N(C)c2ccc3c(ccn3C)c2)c(O)cc1O         2.9
2  CCN(C(=O)c1cc(C(C)C)c(O)cc1O)c1ccc2[nH]ccc2c1         0.9

Input line: Give the reported selectivity ratio for this compound. CCN(C(=O)c1cc(C(C)C)c(O)cc1O)c1ccncc1
Output line: 0.8

Attribution: ChEMBL document CHEMBL4814073
